- Tested on: K562
- experiment-notes: Cytotoxicity against human K562 cells after 48 hrs by MTT assay
- Format: functional, cell-based
- conditions-used: K562, 48 h
readout-name: IC50

Suppose we examine the compound Oc1ccc(CCc2cc(O)cc(O)c2)cc1 [DIHYDRORESVERATROL] ; what IC50 value has been reported?
< 1000 nM
